- System: Blumeria graminis f. sp. hordei; Synonym: Erysiphe graminis f. sp. hordei
- methodNotes: Barley powdery mildew (ERYSGH) disease control
- Format: in vivo
- details: 24 h, 1 Day Protectant, high volume, read-out: Disease Control ERYSGH 1 DP
- Method: Technical grades of materials were dissolved in acetone, which were then mixed with nine volumes of water containing 110 ppm Triton X-100. The fungicide solutions were applied onto wheat seedlings using an automated booth sprayer to run-off. All sprayed plants were allowed to air dry prior to further handling. All fungicides were evaluated using the aforementioned method for their activity vs. all target diseases. […]
measuredAttribute: pest or weed control at 100 ppm

Known pest or weed control at 100 ppm results, listed for orientation:
compound="COc1ccnc(C(=O)N[C@H]2CCC[C@H](Oc3ccccc3)[C@@H](OC)[C@H](C)OC2=O)c1OCOC(C)=O [F252]" testsystem="Blumeria graminis f. sp. hordei; Synonym: Erysiphe graminis f. sp. hordei" valuemeasured="0 to 80%"
compound="COc1ccnc(C(=O)N[C@H]2CCC[C@H](OCc3ccccc3)[C@@H](OCc3ccccc3)[C@H](C)OC2=O)c1OCOC(C)=O [F30]" testsystem="Blumeria graminis f. sp. hordei; Synonym: Erysiphe graminis f. sp. hordei" valuemeasured="0 to 80%"
compound="COc1ccnc(C(=O)N[C@H]2CCC[C@H](Oc3ccccc3)[C@@H](OC)[C@H](C)OC2=O)c1OCOC(=O)C(C)C [F255]" testsystem="Blumeria graminis f. sp. hordei; Synonym: Erysiphe graminis f. sp. hordei" valuemeasured="0 to 80%"
compound="COc1ccnc(C(=O)N[C@H]2CCC[C@H](OC3CCCC3)[C@@H](OCCCc3ccccc3)[C@H](C)OC2=O)c1OCOC(C)=O [F165]" testsystem="Blumeria graminis f. sp. hordei; Synonym: Erysiphe graminis f. sp. hordei" valuemeasured="0 to 80%"

Q. Given the compound CCCO[C@H]1CCC[C@H](NC(=O)c2nccc(OC)c2OC(=O)CCOC)C(=O)O[C@@H](C)[C@@H]1Oc1ccccc1 [F140] , write its reported pest or weed control at 100 ppm.
A. 0 to 80%

Q. Provide measured pest or weed control at 100 ppm value, entry: COc1ccnc(C(=O)N[C@H]2CCC[C@H](OCc3ccccc3)[C@@H](Oc3ccccc3)[C@H](C)OC2=O)c1OCOC(C)=O [F31]
A. 0 to 80%

Q. Report measured pest or weed control at 100 ppm; entry is COc1ccnc(C(=O)N[C@H]2CCC[C@H](OCCCc3ccccc3)[C@@H](Oc3ccccc3)[C@H](C)OC2=O)c1OC(C)=O [F134]
A. 0 to 80%

Q. Give pest or weed control at 100 ppm for COc1ccnc(C(=O)N[C@H]2CCC[C@H](Oc3ccccc3)[C@@H](Oc3ccccc3)[C@H](C)OC2=O)c1OCOC(=O)C(C)C [F36]
A. 0 to 80%

Q. // fetch pest or weed control at 100 ppm given entry CCCO[C@H]1CCC[C@H](NC(=O)c2nccc(OC)c2OCOC(=O)C(C)C)C(=O)O[C@@H](C)[C@@H]1OC1CCCC1 [F154]
A. 80 to 100%

Q. Specify pest or weed control at 100 ppm for C=C(C)CO[C@H]1CCC[C@H](NC(=O)c2nccc(OC)c2OCOC(C)=O)C(=O)O[C@@H](C)[C@@H]1OC [F250] and stop.
A. 0 to 80%

Q. Supply measured pest or weed control at 100 ppm of COc1ccc(O[C@H]2CCC[C@H](NC(=O)c3nccc(OC)c3OCOC(=O)C(C)C)C(=O)O[C@@H](C)[C@@H]2OC2CCCC2)cc1 [F169] in your reply.
A. 0 to 80%

Q. Report pest or weed control at 100 ppm, nothing else, for this compound: COc1ccnc(C(=O)N[C@H]2CCC[C@H](OCC(C)C)[C@@H](OCC(C)C)[C@H](C)OC2=O)c1OCOC(=O)C(C)C [F37]
A. 80 to 100%

Q. For the compound CCCCCO[C@H]1[C@H](C)OC(=O)[C@@H](NC(=O)c2nccc(OC)c2OCOC(C)=O)CCC[C@@H]1OC1CCCC1 [F166] , give its reported pest or weed control at 100 ppm.
A. 80 to 100%

Q. Give the measured pest or weed control at 100 ppm for COc1ccnc(C(=O)N[C@H]2CCC[C@H](OCC(C)C)[C@@H](Oc3ccccc3)[C@H](C)OC2=O)c1OCOC(=O)C(C)C [F34]
A. 0 to 80%
